Target: human EHMT2 913-1193 (Homo sapiens, UniProt Q96KQ7)
Construct: recombinant purified human EHMT2 913-1193, Viva; purchased Viva
Sequence (Q96KQ7 913-1193): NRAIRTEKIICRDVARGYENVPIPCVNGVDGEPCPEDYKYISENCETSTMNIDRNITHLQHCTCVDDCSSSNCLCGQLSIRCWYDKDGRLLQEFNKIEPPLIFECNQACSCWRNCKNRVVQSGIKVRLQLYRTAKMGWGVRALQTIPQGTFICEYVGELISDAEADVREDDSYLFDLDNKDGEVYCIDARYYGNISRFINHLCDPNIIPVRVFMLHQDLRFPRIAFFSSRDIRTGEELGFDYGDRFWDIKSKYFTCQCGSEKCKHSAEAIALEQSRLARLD
Assay: EHMT2 enzyme assay on histone peptide substrate (EHMT2 PEP)
Type: biochemical
Conditions: Table III; read-out: EHMT2 PEP (IC50 μM)
Result Type: IC50

In [3]: df
Out[3]:
                                   compound  result_type  reported_value
0  CNc1ccnc(Nc2cccc(N3CCC(N)C3=O)c2)n1 (stereo not shown)         IC50      1 to 10 µM
1  CNc1ccnc(Nc2ccc(OC)c(OCCCN3CC(F)C3)c2)n1         IC50      1 to 10 µM
2  COc1ccc(Nc2nccc(NC(C)C3CCOCC3)n2)cc1OCCCN1CCCC1 (stereo not shown)         IC50     0.1 to 1 µM
3  CNc1ccnc(Nc2ccc(OC)c(OCC3CCN(C)C3)c2)n1 (stereo not shown) [Compound 393]         IC50     0.1 to 1 µM
4  CNc1ccnc(Nc2ccc(OC)c(OC[C@H]3CN(C)C[C@@H]3C)c2)n1 (single isomer, unassigned)         IC50     0.1 to 1 µM
5  CNc1ccnc(Nc2cccc(N3CCC(N)C3)c2)n1 (stereo not shown) [Compound 297]         IC50      1 to 10 µM
6  CNc1cc(N2CCCC2)nc(Nc2ccc(OC)c(OCCCN3CCCC3)c2)n1         IC50      1 to 10 µM
